- System: SMN2
- Procedure Text: Quantitative Splicing Assay (SMN)
- Assay type: cell-based
- Reported Conditions: Homo sapiens, Fibroblast; SMA patient fibroblasts (GM03813), 24 h, qPCR SMN Δ7; read-out: SMN2 Potency- Splicing: Splicing D7 IC50 (average)
- Experimental: Spinal muscular atrophy (SMA) patient fibroblasts (GM03813, Coriell) are plated in 96-well plates at 50,000 cells/well. Immediately after plating, cells are dosed with compounds for 24 h at concentrations ranging from 2.5 μM to 0.6 nM (0.1% DMSO). Treated cells are lysed and cDNA synthesized using the Fast Advanced Cells-to-Ct kit (Thermofisher A35378) according to the manufacturer's instructions. 2 μL of each cDNA are used in qPCR reactions. […]
Metric: IC50

>>> print(df.to_string())
                           smiles_structure      obs_value
0  Cn1cc(-c2ccc(-c3cc4c(nn3)N([C@@H]3C[C@H]5CC[C@@H](C3)N5)CCC4)c(O)c2)cn1  0.01 to 15 nM
